Below, each of the compounds is paired with its reported IC50 value.
target: RET kinase V804M (Homo sapiens, UniProt P07949, V804M); assay: RET Enzyme Assay (HTRF KinEASE-TK), V804M
Sequence (P07949 29-1114 V804M): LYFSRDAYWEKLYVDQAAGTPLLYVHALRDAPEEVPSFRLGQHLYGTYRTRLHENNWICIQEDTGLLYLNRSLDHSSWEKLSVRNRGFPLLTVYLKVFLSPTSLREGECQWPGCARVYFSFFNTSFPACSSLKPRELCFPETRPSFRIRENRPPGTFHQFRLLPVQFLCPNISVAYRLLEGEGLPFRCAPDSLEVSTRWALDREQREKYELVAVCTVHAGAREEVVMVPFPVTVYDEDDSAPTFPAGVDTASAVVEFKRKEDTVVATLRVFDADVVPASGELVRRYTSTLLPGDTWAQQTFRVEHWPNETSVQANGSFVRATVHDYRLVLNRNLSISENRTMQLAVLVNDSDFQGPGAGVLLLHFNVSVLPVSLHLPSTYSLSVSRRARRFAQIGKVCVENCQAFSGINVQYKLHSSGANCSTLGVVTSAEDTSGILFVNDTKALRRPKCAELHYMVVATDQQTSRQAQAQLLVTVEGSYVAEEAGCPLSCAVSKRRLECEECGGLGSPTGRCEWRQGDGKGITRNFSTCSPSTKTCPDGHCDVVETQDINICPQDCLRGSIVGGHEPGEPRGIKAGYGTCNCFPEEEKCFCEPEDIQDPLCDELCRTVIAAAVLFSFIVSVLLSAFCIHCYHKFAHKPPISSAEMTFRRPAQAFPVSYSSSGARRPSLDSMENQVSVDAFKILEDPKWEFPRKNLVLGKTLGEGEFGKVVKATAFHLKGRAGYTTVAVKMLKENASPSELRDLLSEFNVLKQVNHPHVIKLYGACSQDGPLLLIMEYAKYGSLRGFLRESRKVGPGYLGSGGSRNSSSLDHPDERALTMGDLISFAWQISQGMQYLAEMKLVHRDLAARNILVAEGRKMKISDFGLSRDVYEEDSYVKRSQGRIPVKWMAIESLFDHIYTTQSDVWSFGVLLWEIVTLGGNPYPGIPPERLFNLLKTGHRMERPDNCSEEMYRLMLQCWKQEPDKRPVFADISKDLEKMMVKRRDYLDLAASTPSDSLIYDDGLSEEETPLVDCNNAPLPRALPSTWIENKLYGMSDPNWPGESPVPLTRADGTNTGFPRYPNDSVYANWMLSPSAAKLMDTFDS
Use µM as the unit, but write only the number.

COMPOUND | UNITS | OBSERVED
CC(C)n1nc(-c2noc(C3CC3)c2-c2ccncc2)c2c(N)ncnc21 | µM | 0.029
CC(C)n1nc(-c2noc(C3CC3)c2-c2cnn(C)c2)c2c(N)ncnc21 | µM | 0.0525
CC(C)n1nc(-c2noc(C3CC3)c2C2CCCCO2)c2c(N)ncnc21 (centres unmarked) | µM | 0.0013
CC(C)n1nc(-c2noc(C3CC3)c2I)c2c(N)ncnc21 | µM | 0.0151

[in] I have this compound here, CC(C)n1nc(-c2noc(C3CC3)c2C2=CCC(C)(O)CC2)c2c(N)ncnc21 (centres unmarked) , and I need its recorded IC50.
[out] 0.0065
